tested.on: TLR2 and CD14 (Homo sapiens)
Construct: expressed in transfected cells; host or cells: HEK (HEK-TLR2-CD14 cell line)
protocol.text: HEK-TLR2-CD14 IL-8 secretion
Format: cell-based
test.settings: 124 ng/ml, 24 h
readout.label: IL-8 secretion, mean (pg/mL)

As a guide, the following entries are already answered.
[
  {
    "compound": "CCCCCCCCCCCC(=O)O[C@H](CCCCCCCCCCC)CC(=O)N[C@H]1[C@H](OC[C@H]2O[C@H](OCCC)[C@H](NC(=O)C[C@H](O)CCCCCCCCCCC)[C@@H](O)[C@@H]2O)O[C@H](CO)[C@@H](OP(=O)(O)O)[C@@H]1O",
    "IL-8 secretion, mean / pg/mL": 0.20
  },
  {
    "compound": "CCCCCCCCCCCC(=O)O[C@H](CCCCCCCCCCC)CC(=O)N[C@H]1[C@H](OC[C@H]2O[C@H](OCC(O)CO)[C@H](NC(=O)C[C@H](O)CCCCCCCCCCC)[C@@H](O)[C@@H]2O)O[C@H](CO)[C@@H](OP(=O)(O)O)[C@@H]1O (stereo partly shown)",
    "IL-8 secretion, mean / pg/mL": 0.11
  }
]

[A] CCCCCCCCCCCC(=O)O[C@H](CCCCCCCCCCC)CC(=O)N[C@H]1[C@H](OC[C@H]2O[C@H](OCCOP(=O)(O)O)[C@H](NC(=O)C[C@H](O)CCCCCCCCCCC)[C@@H](O)[C@@H]2O)O[C@H](CO)[C@@H](OP(=O)(O)O)[C@@H]1O
[B] CCCCCCCCCCCC(=O)O[C@H](CCCCCCCCCCC)CC(=O)N[C@H]1[C@H](OC[C@H]2O[C@H](O)[C@H](NC(=O)C[C@H](O)CCCCCCCCCCC)[C@@H](O)[C@@H]2O)O[C@H](CO)[C@@H](OP(=O)(O)O)[C@@H]1O
Which of the two gives a bigger number for IL-8 secretion, mean: A or B ? Answer format: the label of the selected item. A

----------
tested.on: TLR2 and CD14 (Homo sapiens, UniProt O60603)
Construct: expressed in transfected cells; host or cells: HEK (HEK-TLR2-CD14 cell line)
Sequence (O60603 21-784): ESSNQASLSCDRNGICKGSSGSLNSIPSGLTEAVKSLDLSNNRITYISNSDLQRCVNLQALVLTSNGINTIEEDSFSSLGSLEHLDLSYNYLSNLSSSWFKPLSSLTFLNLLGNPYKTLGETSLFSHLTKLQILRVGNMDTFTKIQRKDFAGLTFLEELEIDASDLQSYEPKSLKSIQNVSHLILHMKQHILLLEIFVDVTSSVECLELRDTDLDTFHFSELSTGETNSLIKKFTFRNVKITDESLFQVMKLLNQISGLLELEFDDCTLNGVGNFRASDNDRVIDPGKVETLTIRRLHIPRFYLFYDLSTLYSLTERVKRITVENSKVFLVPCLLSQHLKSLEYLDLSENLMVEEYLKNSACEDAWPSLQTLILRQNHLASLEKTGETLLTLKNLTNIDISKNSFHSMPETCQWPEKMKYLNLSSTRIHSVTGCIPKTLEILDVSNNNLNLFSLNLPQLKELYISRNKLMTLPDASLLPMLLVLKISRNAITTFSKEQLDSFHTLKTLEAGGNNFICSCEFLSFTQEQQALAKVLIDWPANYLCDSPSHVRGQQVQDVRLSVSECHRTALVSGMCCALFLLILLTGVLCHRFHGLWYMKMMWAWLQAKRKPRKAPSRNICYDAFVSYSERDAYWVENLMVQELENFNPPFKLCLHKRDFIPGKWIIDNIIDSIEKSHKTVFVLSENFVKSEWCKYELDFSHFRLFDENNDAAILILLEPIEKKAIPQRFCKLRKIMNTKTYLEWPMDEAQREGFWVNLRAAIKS
protocol.text: HEK-TLR2-CD14 IL-8 secretion
Type: cell-based
test.settings: 1111 ng/ml, 24 h
Excerpt: The HEK293 cell line was chosen for its null or low basal expression of the TLR genes. These cells enable efficient monitoring of TLR activity using ELISA analysis such as IL-8 titration or reporter-based systems that monitor TLR-induced NF-κB activation. HEK-TLR2 cells (Invivogen, Toulouse, France) are engineered HEK293 cells stably transfected with multiple genes from the TLR2 pathway that include TLR2 and genes participating in the recognition or involved in the signaling cascade. […]
readout.label: IL-8 secretion, mean (pg/mL)

Some molecules with recorded IL-8 secretion, mean:
[
  {
    "molecule": "CCCCCCCCCCCC(=O)O[C@H](CCCCCCCCCCC)CC(=O)N[C@H]1[C@H](OC[C@H]2O[C@H](OCCC)[C@H](NC(=O)C[C@H](O)CCCCCCCCCCC)[C@@H](O)[C@@H]2O)O[C@H](CO)[C@@H](OP(=O)(O)O)[C@@H]1O",
    "tested.on": "TLR2 and CD14 (Homo sapiens, UniProt O60603)",
    "IL-8 secretion, mean (pg/mL)": 0.40
  },
  {
    "molecule": "CCCCCCCCCCCC(=O)O[C@H](CCCCCCCCCCC)CC(=O)N[C@H]1[C@H](OC[C@H]2O[C@H](OCC(O)CO)[C@H](NC(=O)C[C@H](O)CCCCCCCCCCC)[C@@H](O)[C@@H]2O)O[C@H](CO)[C@@H](OP(=O)(O)O)[C@@H]1O (stereo partly shown)",
    "tested.on": "TLR2 and CD14 (Homo sapiens, UniProt O60603)",
    "IL-8 secretion, mean (pg/mL)": 0.17
  }
]

[a] CCCCCCCCCCCC(=O)O[C@H](CCCCCCCCCCC)CC(=O)N[C@H]1[C@H](OC[C@H]2O[C@H](O)[C@H](NC(=O)C[C@H](O)CCCCCCCCCCC)[C@@H](O)[C@@H]2O)O[C@H](CO)[C@@H](OP(=O)(O)O)[C@@H]1O
[b] CCCCCCCCCCCC(=O)O[C@H](CCCCCCCCCCC)CC(=O)N[C@H]1[C@H](OC[C@H]2O[C@H](OCCOP(=O)(O)O)[C@H](NC(=O)C[C@H](O)CCCCCCCCCCC)[C@@H](O)[C@@H]2O)O[C@H](CO)[C@@H](OP(=O)(O)O)[C@@H]1O
Could you tell me which of a and b has the lower IL-8 secretion, mean reading? Selection: enter the item's label. a
(a: 0.06 pg/mL, b: 0.52 pg/mL)

Each recorded value in this set is attributed to patent US20100168054A1.
